// inhibition lookup, one value per entry
Assay info: human hepatoma cell viability loss – ATP luminescence, cytotoxicity control for P. falciparum antimalarial project, primary screen (AID 2303);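 further: 0% = DMSO wells and 100% = digitonin-killed cells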
Run conditions: HepG2 viability, 24-48 h, at 10 µM, hits give high values

Molecule: c1cc(-c2nc3ccccc3[nH]2)nc(-c2nc3ccccc3[nH]2)c1
inhibition, %: 7
--
Molecule: COc1ccc(-n2ccnc2SCC(=O)Nc2cc(C(F)(F)F)ccc2Cl)c(OC)c1
inhibition, %: 0
--
Molecule: COc1ccccc1N1CCN(C(C(=O)NCc2ccc(C)cc2)c2ccc(C)cc2)CC1 (stereo not given)
inhibition, %: 12
--
Molecule: O=C(COc1cccc([N+](=O)[O-])c1)Nc1ccc(-c2nc3ccccc3[nH]2)cc1
inhibition, %: 12
--
Molecule: CCOc1ccc(N2C(N)=NC(N)=NC2(C)C)cc1
inhibition, %: 10
--
Molecule: Cc1cccc2[nH]c(-c3cccc(-c4cccc(NC(=O)Nc5ccc(Cl)cc5)c4)c3)nc12
inhibition, %: 23
--
Molecule: O=C(Nc1cccc(-c2cccc(-c3nc4ccccc4[nH]3)c2)c1)c1ccncc1
inhibition, %: 27
--
Molecule: N#Cc1ccc(NC(=O)c2ccc(Cc3ccc4c(c3)CCN(C3CCC3)CC4)cn2)cc1
inhibition, %: 66
--
Molecule: N#CCCN1CCN(Cc2ccc(-c3ccc(-c4nc5ccc(F)cc5[nH]4)s3)cc2)CC1
inhibition, %: 58
--
Molecule: CC(=O)Nc1ccc(NC(=O)c2cc(-c3ccc(C)cc3O)n[nH]2)cc1
inhibition, %: -3
--
Molecule: CCNC(=O)Nc1ccc(-c2cccc(-c3nc4c(C)cccc4[nH]3)c2)cc1
inhibition, %: 16
--
Molecule: Cc1nc(-c2nc(NCc3ccncc3)ncc2-c2ccsc2)sc1C
inhibition, %: 8
--
Molecule: Cc1cc(N2CCCC2)nc(Nc2ccc(NC(=O)CC(C)C)cc2)n1
inhibition, %: 37
--
Molecule: Clc1ccc2c(NCc3ccc4c(c3)OCO4)ccnc2c1
inhibition, %: 6
--
Molecule: CC(C)(C)c1ccc(CNCCOc2ccc(Nc3nnc(-c4ccc(-c5ncc[nH]5)cc4)o3)c3ccccc23)cc1
inhibition, %: 43
--
Molecule: COc1ccc2nccc([C@@H](O)CN3CCC(NCc4cc5ccccc5[nH]4)CC3)c2c1
inhibition, %: 75
--
Molecule: COc1ccc2nccc([C@@H](O)CN3CCC(NCc4cc5c(cc4F)SCC(=O)N5)CC3)c2n1
inhibition, %: 14
--
Molecule: Cc1ccc(C)c(Cn2c(N3CCC(C(=O)NCc4cccs4)CC3)nc3ccccc32)c1
inhibition, %: -2
--
Molecule: O=c1cc(NCCCNCc2cccc3c2OC(F)(F)O3)[nH]c2ccccc12
inhibition, %: 4
--
Molecule: CC(C)COc1ccc(Cl)cc1Nc1nc(-c2nc3ccccc3[nH]2)cs1
inhibition, %: 2
--
Molecule: COc1ccc(Oc2ccccc2CNCC2CCN(CC3CCCCC3)CC2)cc1
inhibition, %: 34
--
Molecule: CC(C)CNCc1ccc(-c2ccc(CN(C(=O)NCCc3ccccc3)C3CCN(Cc4ccccc4)CC3)cc2)cc1
inhibition, %: 37
--
Molecule: Cc1cc(NC(=O)NCCN2CCC(NC(=O)c3ccc(Cl)cc3)CC2)c2ccccc2n1
inhibition, %: -4
--
Molecule: COc1ccc(-c2cccc(NC(=O)c3ccc(C#N)cc3)c2)cc1CNC(C)C
inhibition, %: 25
--
Molecule: COc1ccc(OC)c(NC(=O)c2c(-c3c(F)cccc3Cl)noc2C)c1
inhibition, %: -1
--
Molecule: O=C1OC(c2ccccc2)(c2ccccc2)CN1C1CCN(Cc2ccc(O)c(Cl)c2)C1 (stereo not given)
inhibition, %: 10
--
Molecule: O=c1cnc2ccc(F)cc2n1CCN1CCC(NCc2cc(-c3ccccc3)cs2)CC1
inhibition, %: -5
--
Molecule: CC1CN(Cc2cccc(-c3ccc(-c4nc5ccccc5[nH]4)cc3)c2)CC(C)O1 (stereo not given)
inhibition, %: 37
--
Molecule: COc1cccc(C(=O)NCCc2cccc(Cl)c2)c1Oc1ccccc1
inhibition, %: 28
--
Molecule: COc1ccc2nccc([C@@H](O)CN3CCC(NC(=O)c4ccc(Cl)c([N+](=O)[O-])c4)CC3)c2c1
inhibition, %: 14

====

Subject of test: L-lactate dehydrogenase (Plasmodium falciparum (isolate CDC / Honduras)) (UniProt Q27743)
Sequence (Q27743 whole entry, looked up): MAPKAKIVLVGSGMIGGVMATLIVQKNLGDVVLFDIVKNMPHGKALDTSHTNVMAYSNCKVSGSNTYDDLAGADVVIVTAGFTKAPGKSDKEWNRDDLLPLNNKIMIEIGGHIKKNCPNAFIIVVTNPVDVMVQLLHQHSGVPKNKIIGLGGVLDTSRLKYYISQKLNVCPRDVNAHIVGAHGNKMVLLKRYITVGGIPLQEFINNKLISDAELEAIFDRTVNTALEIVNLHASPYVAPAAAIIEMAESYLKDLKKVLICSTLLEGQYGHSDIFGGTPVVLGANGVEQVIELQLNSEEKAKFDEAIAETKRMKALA
Assay info: PfLDH activity inhibition – cell lysate, 3D7 strain, counter-screen for P. falciparum growth inhibition project (AID 2304);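 further: 0% = vehicle and 100% = reference inhibitor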
Run conditions: P. falciparum 3D7 crude extract, LDH APAD/NBT absorbance; at 2 µM; hits give high values
Quantity kind: inhibition (%)

Compound: Cc1cc(N[C@@H](CC(C)C)C(=O)NCCc2ccccc2)nc(NCc2ccccc2C)n1
Assay value: 0
--
Compound: Cc1cc(N(C)C)nc(Nc2ccc(NC(=O)COc3ccccc3)cc2)n1
Assay value: 3
--
Compound: CC(=O)Nc1ccc(C(=O)Nc2cccc(-c3csc(-c4nc5ccccc5[nH]4)c3)c2)cn1
Assay value: -3
--
Compound: Cc1nnsc1C(=O)Nc1ccc(-c2ccc(-c3nc4ccccc4[nH]3)s2)cc1
Assay value: 4
--
Compound: O=c1cc(NCCCNCc2ccccc2-c2ccccc2)[nH]c2ccccc12
Assay value: -1
--
Compound: COc1ccc(-n2cc(CNCCCn3ccnc3)c(-c3cccc(F)c3)n2)cc1
Assay value: 0
--
Compound: CCNc1cc(C(=O)N[C@@H](Cc2ccccc2)[C@H](O)CNCC(C)C)cc(N2CCCC2=O)c1
Assay value: 3
--
Compound: Cc1nc(N)nc(N)c1-c1ccc2ccccc2c1
Assay value: 6
--
Compound: COCCNCc1ccc(-c2cccc(CNc3ccc(OC)cc3)c2)cc1
Assay value: -1
--
Compound: CCNc1cc(C(=O)N[C@@H](Cc2ccccc2)[C@H](O)CNCCC(C)c2ccccc2)cc(N2CCCC2=O)c1 (some centres not stated)
Assay value: 3
--
Compound: CCOC(=O)C(C#N)NC(=O)C=Cc1ccccc1 (configuration not stated)
Assay value: 6
--
Compound: COc1ccc(CN2CCCC(C(=O)c3ccc(C(F)(F)F)cc3)C2)c(O)c1 (configuration not stated)
Assay value: -3
--
Compound: CC(C)COc1ccc2ccccc2c1CNCCCCCCNCc1c(OCC(C)C)ccc2ccccc12
Assay value: 2
--
Compound: CN1CCN(C(C(=O)NCc2cc(Cl)cc(Cl)c2)c2ccc(Nc3cccc(C(F)(F)F)c3)cc2)CC1 (configuration not stated)
Assay value: 5
--
Compound: O=C(Nc1cccc(C(F)(F)F)c1)NC1CCN(c2ccnc3ccccc23)CC1
Assay value: -1
--
Compound: O=C(NC1CC1)c1cnc(N2CCC(OCc3ccccc3)CC2)c(Cl)c1
Assay value: -2
--
Compound: Cn1c(NC(=O)c2ccc(CNC(=O)c3ccc(O)c(-c4ccc(Cl)c(Cl)c4)c3)cc2)nc2ccccc21
Assay value: -1

====

Assay info: human hepatoma cell viability loss – ATP luminescence, cytotoxicity control for P. falciparum antimalarial project, primary screen (AID 2303);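 further: 0% = DMSO wells and 100% = digitonin-killed cells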
Run conditions: HepG2 viability, 24-48 h, at 10 µM, hits give high values
Quick list: inhibition per entry.

Molecule: CN(C)CCOc1cc(NC(=O)Nc2ccc(Oc3ccccc3)cc2)ccc1I
Unit abbreviation: %
inhibition: 13
//
Molecule: CCNc1cc(CC)nc(Nc2ccc(C)cc2)n1
Unit abbreviation: %
inhibition: 22
//
Molecule: CC(=O)c1cccc2c(NC(=O)Nc3ccc4nccc(N5CCN(C)CC5)c4c3)cccc12
Unit abbreviation: %
inhibition: 13
//
Molecule: Fc1cccc(COc2ccc(Nc3ncnc4sc(C#C[C@H]5CC[C@H](CNCC(F)(F)F)N5)cc34)cc2Cl)c1
Unit abbreviation: %
inhibition: 10
//
Molecule: CC(=O)Nc1nnc(SCc2c(C)cc(C(C)(C)C)cc2C)s1
Unit abbreviation: %
inhibition: 3
//
Molecule: CCCCCCCc1c(C)[nH]c2cc(OC)ccc2c1=O
Unit abbreviation: %
inhibition: 5
//
Molecule: CN(C)S(=O)(=O)c1ccc(C(=O)N(c2nc(-c3ccccc3)cs2)C2CCCCC2)cc1
Unit abbreviation: %
inhibition: 7
//
Molecule: Clc1ccc2c(NN=Cc3ccccc3)ccnc2c1
Unit abbreviation: %
inhibition: -6
//
Molecule: CC1CCN(c2nc(C(=O)Nc3ccc(F)cc3C(F)(F)F)c(C(C)C)s2)CC1
Unit abbreviation: %
inhibition: 5
//
Molecule: O=C(/C=C/c1cccc(Cl)c1)Nc1ccc2nc(CN3CCCC3)ccc2c1
Unit abbreviation: %
inhibition: 47
//
Molecule: CCCNc1ccc2nccc(CCN3CCC(NCc4ccc5c(c4)NC(=O)CS5)CC3)c2n1
Unit abbreviation: %
inhibition: -2
//
Molecule: CN(C)c1ccc(C2c3nc[nH]c3CCN2C(=O)Nc2cccc([N+](=O)[O-])c2)cc1 (stereo unspecified)
Unit abbreviation: %
inhibition: -5
//
Molecule: NC1=NC2(CCCCC2)N(OCCCCCCCCNc2nc(N)nc(N)n2)C(N)=N1
Unit abbreviation: %
inhibition: 44
//
Molecule: CCN1CCN(CC(O)CNC(=O)Nc2ccc(Cl)cc2)CC1 (stereo unspecified)
Unit abbreviation: %
inhibition: 29
//
Molecule: Cc1[nH]c2ccccc2c(=O)c1[N+](=O)[O-]
Unit abbreviation: %
inhibition: 5
//
Molecule: Cc1cccc2[nH]cc(C3CCN(CCC4CCN(C(=O)/C=C/c5ccc(Cl)c(Cl)c5)CC4)CC3)c12
Unit abbreviation: %
inhibition: 13
